Record type: IC50 measurement. Applies to: Cholinesterase (Equus caballus, UniProt P81908)

>  <COMPOUND>
c1ccc2c(c1)c1ccncc1n2CCCCCn1c2ccccc2c2ccncc21

>  <IC50>
> 1 µM

$$$$
>  <COMPOUND>
CNC1(c2ccccc2Cl)CCCCC1=O (configuration not stated)

>  <IC50>
> 10 µM

$$$$
>  <COMPOUND>
CC12CC3CC(C)(C1)CC(N)(C3)C2 [MEMANTINE]

>  <IC50>
> 10 µM

$$$$
>  <COMPOUND>
CCn1c2ccccc2c2ccncc21

>  <IC50>
> 10 µM

$$$$
>  <COMPOUND>
c1cc[n+](CCCCCC[n+]2ccccc2)cc1

>  <IC50>
> 10 µM

$$$$
>  <COMPOUND>
c1ccc2c3c([nH]c2c1)CN(CCCCCN1CCc2c([nH]c4ccccc24)C1)CC3

>  <IC50>
> 1 µM

$$$$
>  <COMPOUND>
c1ccc2c(c1)c1ccncc1n2CCCCCCCCCCCCn1c2ccccc2c2ccncc21

>  <IC50>
> 10 µM

$$$$
